Test system: MS2 coat protein
experiment.notes: apparent KD of MS2 coat protein; designed switch direction (-1 OFF switch, 1 ON switch): -1; higher = weaker reporter binding
condition.set: input ligand: none
outcome.measure: apparent KD of MS2 coat protein (nM)
# output: bare number, implied unit nM

*Q* Output measured apparent KD of MS2 coat protein for this item: UACACUGCAUGAGGAUCAAACAUGAGGAUCACCCAUGUAUAGCAAGCUUUUUGCGCGUCUUAUAAUUAUGUAGUGUA [Electric Eye 19 - Jieux - Sensor, turn-off variant 1] (Eterna round: R97, puzzle: Sensor, turn-off variant 1)
*A* 15.4

Now take the following sequence into account.
*Q* Output measured apparent KD of MS2 coat protein for this item: UCGUGGAUCGAGGAUAUGCCACGGACAGACGCCGCAGAAGGCGAAACAUGAGGAUCACCCAUGUGUGCCAUCCU [Eternabot (L1) Solution 52] (Eterna round: R97, puzzle: Exclusion 6)
*A* 56.5

---

# reported apparent KD of MS2 coat protein; entries follow
System: MS2 coat protein
experiment.notes: apparent KD of MS2 coat protein; designed switch direction (-1 OFF switch, 1 ON switch): -1; higher = weaker reporter binding
condition.set: input ligand: none
# output: bare number, implied unit nM

Previously resolved entries follow.
*Q* // fetch apparent KD of MS2 coat protein for AGCUAGUCAGGAUAUUCUAAAAAUUACAUGAGGAUCACCCAUGUGAAUGGACAAGGGUGUGAAGAAGGGACUAGCG [Omei Ex5 A11] (Eterna round: R97, puzzle: Exclusion 5) ; system: MS2 coat protein
*A* 540

*Q* // fetch apparent KD of MS2 coat protein for AAUUAGUAUGUGAGGAUAUUGAUGAGAUGAUGGUUUAAGAAGGCACAUGAGGAUCACCCAUGUAGGAAAUAACG [JR_BMEx4_Sub005] (Eterna round: R97, puzzle: Brourd's mod of Exclusion 4) ; system: MS2 coat protein
*A* 24.4

*Q* // fetch apparent KD of MS2 coat protein for CCAGCGUAUGUGAGGAUAUGCUGGUCCUUGGAUCAGCAGAAGGCACAUGAGGAUCACCCAUGUGGAAAAGUUGG [Mod of JL 23 - Jieux - Brourd's mod of Exclusion 4] (Eterna round: R97, puzzle: Brourd's mod of Exclusion 4) ; system: MS2 coat protein
*A* 27.3

***
*Q* // fetch apparent KD of MS2 coat protein for AAAUUAGCAAGUAGAUCCGACAUGAGGAUCACCCAUGUAAUCUAAAAUUACGCUGCACGAAAGUGCGCUCGUCUUAG [Sensor-V1 #13] (Eterna round: R97, puzzle: Sensor, turn-off variant 1) ; system: MS2 coat protein
*A* 405

---

Test system: K4 kissing-loop RNA reporter;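 note: bound reporter read as fluorescence of individual clusters on recovered sequencing chips by microscopy, with normalized cluster intensities fitted with a binding model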
experiment.notes: apparent KD of K4 kissing-loop reporter; higher = weaker reporter binding
condition.set: Eterna round: R107; input ligand: arginine 13.2 mM
outcome.measure: apparent KD of K4 kissing-loop reporter (nM)
# output: bare number, implied unit nM

Previously resolved entries follow.
*Q* Output measured apparent KD of K4 kissing-loop reporter for this item: UAACGACUCGGAAGGAGCGCGGUUUUAAAAGACUAAGGCCGAGUGAUGUUCGGAGAAGUCCCGCAGGUAGGUCGCCGGGUUGUGG [Ceororedar]
*A* 138

*Q* Output measured apparent KD of K4 kissing-loop reporter for this item: UGCAUGCUUGUAGUGAUGUUACAAGAUGAUACCAGUGCUUUUUUGCACCCUUGGCAGCGUCAUAGUGCAUGCACGUCGAAAGACG
*A* 153

*Q* Output measured apparent KD of K4 kissing-loop reporter for this item: GUGACACGUGAUGAUACCAGUCCACGGAAGUUCCUUAGUGAUGUUAACCUUGCUUUUUCUGACCCUUGGCAGCAUUAGUUGAGAA [theeternabot_sameState_KL_Theo_B_42]
*A* 166

*Q* Output measured apparent KD of K4 kissing-loop reporter for this item: AAACAACGUGACGAUACCAGCUUACUCGGCAAGCCAGUGAUGUUGGUGAAAAGGAGUCAAAGCCCUUGGCAGCGUCGAAGGUCUG [Georbeer]
*A* 326

***
*Q* Output measured apparent KD of K4 kissing-loop reporter for this item: AGUCCACUCUAAAGAGUGGACCUAAGGGAUACCAGUGAUGUUGGUCACCCUUGGCAGCCCUCUGUCAUCGAUAAAGAUGGCAGGA
*A* 114

*Q* Output measured apparent KD of K4 kissing-loop reporter for this item: GGGCUAUAGUGAUGUUAUUGUCUAAACGAUACCAGUUCACCCGUGAACCCUUGGCAGCGUGGUGUAACCUAUCCUCGUUGCACUG [theeternabot_sameState_KL_Theo_A_28]
*A* 595

---

# reported apparent KD of MS2 coat protein; entries follow
Test system: MS2 coat protein
experiment.notes: apparent KD of MS2 coat protein; higher = weaker reporter binding
condition.set: Eterna round: R107; input ligand: arginine 13.2 mM
# output: bare number, implied unit nM

Previously resolved entries follow.
*Q* // fetch apparent KD of MS2 coat protein for UUUACAUGAGGAUCACCCAUGUGCCAUGAUACCAGACAUGAAAAUGUCCCUUGGCAGCAUGGGUGUAGCGUCGGGAAACCGACGC [Kohoutovice] ; system: MS2 coat protein
*A* 97.5

*Q* // fetch apparent KD of MS2 coat protein for CAAUUUAGAAAACUAAAUUGAGUGGGUGAACGAGGACCGGUACGGCCGCCACUCGGACAUGAGGAUCACCCAUGUCCAUGUGAAA [AstrosExyTryA#23] ; system: MS2 coat protein
*A* 11.3

*Q* // fetch apparent KD of MS2 coat protein for CGAUUUAAGACGGCCGCCACUAUUAAGUAACAAAAUAAACAUGAGGAUCACCCAUGUACAUGGGAUAGGACCGGGUCCAAUAUCG [A2] ; system: MS2 coat protein
*A* 34.8

*Q* // fetch apparent KD of MS2 coat protein for AAACGUUGCUGCGAUACCAGACAUGAGGAUCACCCAUGUACCAAGGUACGAAUAUAACAUGUCCCUUGGCAGCGCAGCAACGAAA [MAT - Exclusion Theophlline B - Mod of Eli - D7] ; system: MS2 coat protein
*A* 17.5

*Q* // fetch apparent KD of MS2 coat protein for AAUUUAAACGGAAGGAGCGUCACUUAAUAUCAACAUGAGGAUCACCCAUGUAAGGGUUGUAGACAGGUAGGUCGCCGUCAUUUGA [JR_AAArginiB_Sub023] ; system: MS2 coat protein
*A* 36.3

*Q* // fetch apparent KD of MS2 coat protein for UCGGGCAUAGCGGCCGCCACUGUUUGGCGUGCGGAUGACGGAACAUGAGGAUCACCCAUGUUGUUUAGGACCGGGCUUGCGUCGU [zyzmullin] ; system: MS2 coat protein
*A* 14

***
*Q* // fetch apparent KD of MS2 coat protein for AGAAUACAUGUUUUAAUACGGAAAACUGAUACCAGUGUAUCUAUUCACCCUUGGCAGCAGAGACAUGAGGAUCACCCAUGUAUUA [JR_Nu_SSTheophyA_Sub019] ; system: MS2 coat protein
*A* 28.1

*Q* // fetch apparent KD of MS2 coat protein for AAUAAAUCACAUGAGGAUCACCCAUGUGAUACCAGCCUGGAAACAGGCCCUUGGCAGCACAUGAGGAUCACCCAUGUGCUAAAUA [TheoAX 1 #DoubleMS2 #OpenEnded] ; system: MS2 coat protein
*A* 6.79

*Q* // fetch apparent KD of MS2 coat protein for AAUACCGGAUCGGCCGCCACUGGUUGGCCCUGUGUACAUGAGGAUCACCCAUGUCCAUCCCAAACCAGGACCGGGAUCUUUGUGC [Ededmate] ; system: MS2 coat protein
*A* 11.7

*Q* // fetch apparent KD of MS2 coat protein for UUUUCAGGGUCGGCCGCCACUGGUAUGGCGAGUCCUCGAACAAACAUGAGGAUCACCCAUGUGAACAGGACCGGGACAGCAUGGG [Exclusion Tryptophan B GF 21] ; system: MS2 coat protein
*A* 97.2

*Q* // fetch apparent KD of MS2 coat protein for CGGGUUGGACCAGGAAAUGGUCUGACGCGCCGAGGACCGGUACGGCCGCCACUCGCGGGUACAUGAGGAUCACCCAUGUCGGUGG [#1 Same State - Tryptophan A Attempt #12 (HarryS)] ; system: MS2 coat protein
*A* 58.2

*Q* // fetch apparent KD of MS2 coat protein for AGCCCGUGAGCGGCCGCCACUGGAGGCUUUGCGCGACAUGAGGAUCACCCAUGUGUGCCCGGCGUUAGGACCGGGUUCGCGUGGU [#1 Same State - Tryptophan B Attempt #18 (HarryS)] ; system: MS2 coat protein
*A* 30

*Q* // fetch apparent KD of MS2 coat protein for GGACUAACCAGAAGGAGCGACGCAAGCAGAAACUGCAAUCCUCCGCACGAGGAUCACCCGUGUCAGGUAGGUCGCUGGUUAGUCG [ArgBX 28] ; system: MS2 coat protein
*A* 21.6

*Q* // fetch apparent KD of MS2 coat protein for ACAUGAGGAUCACCCAUGUAUGAUGUUCCUCGAGGACCGGUACGGCCGCCACUCGAACGAGUGGCGCGCGAGUGCGCACUCGCGC [aWa] ; system: MS2 coat protein
*A* 21.1

*Q* // fetch apparent KD of MS2 coat protein for UUGGAUAUGCGAAGGAGCGGGAAAUAUAUAUAUAUAAUCCUAACAUGAGGAUCACCCAUGUCCCAGGUAGGUCGCGCAUAUUUGG [12.H] ; system: MS2 coat protein
*A* 48.1

*Q* // fetch apparent KD of MS2 coat protein for ACACGUGAGGAUCAUCCAUGUGCCCAUGAAGGAGCGUGGGAAACCACAGGUAGGUCGCAUGACAUGAGGAUCACCCAUGUUUAUU [#04 Exclusion - Arginine A] ; system: MS2 coat protein
*A* 43.1

*Q* // fetch apparent KD of MS2 coat protein for UUCGUAUUGUCGGCCGCCACUGCAACAUGAGGAUCACCCAUGUAAGAAUGGUUGUAAAUAUAUUACAGGACCGGGACAAUAGUAA [JR_ExcTryptoB_Sub018] ; system: MS2 coat protein
*A* 16

*Q* // fetch apparent KD of MS2 coat protein for CCGACGAUGACUAUGGGUCAGGAGUGCGUACGAGGACCGGUACGGCCGCCACUCGAGGAGUGGGACAUGAGGAUCACCCAUGUGG [#19 Exclusion Tryptophan A] ; system: MS2 coat protein
*A* 44.6

*Q* // fetch apparent KD of MS2 coat protein for GGUUGAAACUGAAGGAGCGAGAUGACAACAUUGGGUCUAACAUGAGGAUCACCCAUGUAAUCUCAGGUAGGUCGCAGUGACCAAA [Exclusion Arginine B GF 14] ; system: MS2 coat protein
*A* 38.1

*Q* // fetch apparent KD of MS2 coat protein for CUGCCAUGCAGAGAUACCAGUGCGCUCAGCACAUGAGGAUCACCCAUGUCGGCUGCCGAUCACCCUUGGCAGCUCUGCAUGGCAG [?@#$_] ; system: MS2 coat protein
*A* 12

*Q* // fetch apparent KD of MS2 coat protein for UGUCACUGUUUGGUUCAAUGAAGAAGAAUUCGAGGACCGGUACGGCCGCCACUCGCUAUGCAACAUGAGGAUCACCCAUGUAAAA [theeternabot_exclusion_MS2_Trp_A_31] ; system: MS2 coat protein
*A* 13.4

*Q* // fetch apparent KD of MS2 coat protein for AUAUUUAAUGGAAGGAGCGCGGAUAAUAAAGUGGGUAAACAUGAGGAUCACCCAUGUAAACCGCAGGUAGGUCGCCGAAAUAUAU [AstrosEXyARgB#8] ; system: MS2 coat protein
*A* 56.6

*Q* // fetch apparent KD of MS2 coat protein for CUCAUCCACGCGGCCGCCACUAUAUUGUGGUGUGAAUGUGUCGUAAUACAUGAGGAUCACCCAUGUAGGACCGGGCGUGGAUGAG [#08 Exclusion Tryptophan B] ; system: MS2 coat protein
*A* 19.3
